Values from paper PMC8763382

Assayed target: S. aureus SrtA (Staphylococcus aureus)
Construct: His tag (inferred from IMAC on a HisTrap column); made in house; host or cells: E. coli BL21 Gold (DE3)
Assay text: fluorometric enzyme assay of SrtA transpeptidation (Abz-LPETG-Dap(Dnp)-OH substrate)
Assay type: biochemical
Measurement setup: second-order rate of inhibition; Tris pH 7.50; n. i. = <20% inhibition at 100 µM
Endpoint name: k 2nd

>>> df
                                        smi                          assayed_target          reported_value
0  CS(=O)(=O)c1ncc(Cl)c(C(=O)N2CCc3ccccc3C2)n1  S. aureus SrtA (Staphylococcus aureus)                   n. i.
1  CS(=O)(=O)c1ncc(Cl)c(C(=O)Nc2ccc3c(c2)oc2ccccc23)n1  S. aureus SrtA (Staphylococcus aureus)                   n. i.
2  CS(=O)(=O)c1ncc(Cl)c(C(=O)Nc2cccc(OCc3ccccc3)c2)n1  S. aureus SrtA (Staphylococcus aureus)                   n. i.
3  CS(=O)(=O)c1ncc(Cl)c(C(=O)Nc2ccc(-c3ccc(C#N)cc3)cc2)n1  S. aureus SrtA (Staphylococcus aureus)                   n. i.
4  CS(=O)(=O)c1ncc(Cl)c(C(=O)Nc2ccc3[nH]ncc3c2)n1  S. aureus SrtA (Staphylococcus aureus)                   n. i.
5  Cc1cnc(S(C)(=O)=O)nc1C(=O)Nc1cccc(Oc2ccccc2)c1  S. aureus SrtA (Staphylococcus aureus)  1,204 ± 139 M^−1min^−1
6  CS(=O)(=O)c1ncc(Cl)c(C(=O)Nc2cccc(Cc3ccccc3)c2)n1  S. aureus SrtA (Staphylococcus aureus)  6,181 ± 489 M^−1min^−1

---

Assayed target: human cathepsin B (hCatB) (Homo sapiens, UniProt P07858)
Construct: purchased Calbiochem, Merck Millipore
Assay text: protease selectivity panel, fluorometric assay cathepsin B
Assay type: biochemical
Measurement setup: 100 µM inhibitor; read-out: CatB inhibition relative to the DMSO control
Lab note: compare inhibition at 100 µM against 10%. Equal or greater, write y. Smaller, write n.

>>> df
                                   compound  class_name
0  CS(=O)(=O)c1ncc(Cl)c(C(=O)Nc2ccccc2Oc2ccccc2)n1 [Compound 6g]           y
1  CS(=O)(=O)c1ncc(Cl)c(C(=O)Nc2cccc(Oc3ccccc3)c2)n1 [Compound 5a]           n
2  CS(=O)(=O)c1ncc(Cl)c(C(=O)Nc2cccc(C(=O)c3ccccc3)c2)n1 [Compound 6a]           n
3  CS(=O)(=O)c1ncc(Br)c(C(=O)Nc2cccc(Oc3ccccc3)c2)n1 [Compound 7b]           y
4  CS(=O)(=O)c1ncc(Cl)c(C(=O)O)n1 [Compound 5c]           n
5  CS(=O)(=O)c1nc(Cl)cc(NC(=O)c2ccccc2Oc2ccccc2)n1 [Compound 6i]           n

---

S. I. (k 2nd/k chem) values by entry
Assayed target: S. aureus SrtA (Staphylococcus aureus, UniProt Q2FV99)
Construct: His tag (inferred from IMAC on a HisTrap column); made in house; host or cells: E. coli BL21 Gold (DE3)
Sequence (Q2FV99 60-206): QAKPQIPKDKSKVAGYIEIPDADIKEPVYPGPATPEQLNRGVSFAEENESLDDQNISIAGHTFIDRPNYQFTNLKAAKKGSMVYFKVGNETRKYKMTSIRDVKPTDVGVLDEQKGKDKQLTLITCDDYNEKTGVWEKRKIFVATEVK
Assay text: fluorometric enzyme assay of SrtA transpeptidation (Abz-LPETG-Dap(Dnp)-OH substrate)
Assay type: biochemical
Measurement setup: SrtA k 2nd over cysteine k chem
Endpoint name: S. I. (k 2nd/k chem)

>>> print(df.to_string())
                                   compound                            assayed_target  reported_value
0  CS(=O)(=O)c1ncc(Br)c(C(=O)Nc2cccc(Oc3ccccc3)c2)n1 [Compound 7b]  S. aureus SrtA (Staphylococcus aureus, UniProt Q2FV99)             134
1  CS(=O)(=O)c1ncc(Cl)c(C(=O)Nc2cccc(Oc3ccccc3)c2)n1 [Compound 5a]  S. aureus SrtA (Staphylococcus aureus, UniProt Q2FV99)             159
2  CS(=O)(=O)c1ncc(Br)c(C(=O)Nc2cccc(C(=O)c3ccccc3)c2)n1 [Compound 7a]  S. aureus SrtA (Staphylococcus aureus, UniProt Q2FV99)             268
3  CS(=O)(=O)c1ncc(Cl)c(C(=O)Nc2cccc(C(=O)c3ccccc3)c2)n1 [Compound 6a]  S. aureus SrtA (Staphylococcus aureus, UniProt Q2FV99)             327
4  Cc1cnc(S(C)(=O)=O)nc1C(=O)Nc1cccc(Oc2ccccc2)c1 [Compound 7d]  S. aureus SrtA (Staphylococcus aureus, UniProt Q2FV99)             196

---

Record set of Ki for target or system S. aureus SrtA (Staphylococcus aureus).
Endpoint name: Ki

In [3]: df
Out[3]:
                                        smi  endpoint_name  reported_value
0  COc1cccc(NC(=O)c2nc(S(C)(=O)=O)ncc2Cl)c1             Ki        > 100 µM
1  CS(=O)(=O)c1ncc(Cl)c(C(=O)Nc2cccc(-c3ccccc3)c2)n1             Ki        > 100 µM

---

melting point values by entry
Endpoint name: melting point

>>> df
                                        smi  endpoint_name  reported_value
0  CS(=O)(=O)c1ncc(Cl)c(C(=O)Nc2ccccc2Oc2ccccc2)n1  melting point          177 °C
1  CS(=O)(=O)c1ncc(Cl)c(C(=O)Nc2ccc(-c3ccc(C#N)cc3)cc2)n1  melting point          267 °C
2  Cc1cnc(S(C)(=O)=O)nc1C(=O)Nc1cccc(Oc2ccccc2)c1  melting point          164 °C
3  Cc1ccc(-c2csc(NC(=O)c3nc(S(C)(=O)=O)ncc3Cl)n2)cc1  melting point          280 °C

---

Cysteine k chem values by entry
Assay text: cysteine reactivity assay (competitive fluorescence assay with probe 8)
Assay type: physicochemical
Measurement setup: phosphate buffer (1×PBS) pH 7.5
Endpoint name: Cysteine k chem (M⁻¹ s⁻¹)

                                        smi  reported_value
0  CS(=O)(=O)c1ncc(Cl)c(C(=O)Nc2cccc(Oc3ccccc3)c2)n1           0.847
1  Cc1cnc(S(C)(=O)=O)nc1C(=O)Nc1cccc(Oc2ccccc2)c1           0.102
2  CS(=O)(=O)c1ncc(Br)c(C(=O)Nc2cccc(Oc3ccccc3)c2)n1           1.735
3  CS(=O)(=O)c1ncc(Br)c(C(=O)Nc2cccc(C(=O)c3ccccc3)c2)n1           1.748
4  CS(=O)(=O)c1ncc(Cl)c(C(=O)Nc2cccc(C(=O)c3ccccc3)c2)n1            1.06
5  CS(=O)(=O)c1nc(Cl)cc(NC(=O)c2ccccc2Oc2ccccc2)n1               0

---

Assayed target: human protease urokinase plasminogen activator (uPA) (Homo sapiens, UniProt P00749)
Assay text: protease selectivity panel, fluorometric assay urokinase plasminogen activator
Assay type: biochemical
Measurement setup: 100 µM inhibitor; n. i. = no inhibition at 100 µM; read-out: uPA inhibition relative to the DMSO control
Lab note: compare inhibition at 100 µM against 10%. Equal or greater, write Condition met. Smaller, write Condition not met.

>>> df
                                        smi                            assayed_target         class_name
0  CS(=O)(=O)c1nc(Cl)cc(NC(=O)c2ccccc2Oc2ccccc2)n1  human protease urokinase plasminogen activator (uPA) (Homo sapiens, UniProt P00749)      Condition met
1  CS(=O)(=O)c1ncc(Cl)c(C(=O)Nc2ccccc2Oc2ccccc2)n1  human protease urokinase plasminogen activator (uPA) (Homo sapiens, UniProt P00749)      Condition met
2  CS(=O)(=O)c1ncc(Cl)c(C(=O)Nc2cccc(C(=O)c3ccccc3)c2)n1  human protease urokinase plasminogen activator (uPA) (Homo sapiens, UniProt P00749)  Condition not met
3  CS(=O)(=O)c1ncc(Br)c(C(=O)Nc2cccc(Oc3ccccc3)c2)n1  human protease urokinase plasminogen activator (uPA) (Homo sapiens, UniProt P00749)      Condition met
4  CS(=O)(=O)c1ncc(Cl)c(C(=O)Nc2cccc(Oc3ccccc3)c2)n1  human protease urokinase plasminogen activator (uPA) (Homo sapiens, UniProt P00749)      Condition met

---

Assayed target: T. brucei rhodesain (Rd) (Trypanosoma brucei rhodesiense, UniProt Q95PM0)
Construct: purchased Calbiochem, Merck Millipore
Sequence (Q95PM0 entry or part of it): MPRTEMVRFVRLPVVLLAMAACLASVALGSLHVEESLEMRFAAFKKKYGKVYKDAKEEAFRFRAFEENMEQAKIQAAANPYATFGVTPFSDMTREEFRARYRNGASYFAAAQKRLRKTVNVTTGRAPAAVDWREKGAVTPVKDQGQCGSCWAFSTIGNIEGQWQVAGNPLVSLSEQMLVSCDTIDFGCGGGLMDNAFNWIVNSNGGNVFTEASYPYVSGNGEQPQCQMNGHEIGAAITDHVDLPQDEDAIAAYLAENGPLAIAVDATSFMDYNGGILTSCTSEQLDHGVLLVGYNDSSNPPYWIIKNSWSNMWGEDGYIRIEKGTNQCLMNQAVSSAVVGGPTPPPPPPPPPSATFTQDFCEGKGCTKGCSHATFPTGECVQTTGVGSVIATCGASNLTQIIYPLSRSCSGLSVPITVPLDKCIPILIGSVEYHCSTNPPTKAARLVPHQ
Assay text: protease selectivity panel, fluorometric assay rhodesain
Assay type: biochemical
Measurement setup: 100 µM inhibitor; n. i. = no inhibition at 100 µM; read-out: Rd inhibition relative to the DMSO control
inhibition at 100 µM values by entry
Endpoint name: inhibition at 100 µM (%)

                                        smi  reported_value
0            CS(=O)(=O)c1ncc(Cl)c(C(=O)O)n1              20
1  CS(=O)(=O)c1ncc(Cl)c(C(=O)Nc2ccccc2Oc2ccccc2)n1              15
2  CS(=O)(=O)c1nc(Cl)cc(NC(=O)c2ccccc2Oc2ccccc2)n1             9.2
3  CS(=O)(=O)c1ncc(Br)c(C(=O)Nc2cccc(Oc3ccccc3)c2)n1             4.7
4  CS(=O)(=O)c1ncc(Cl)c(C(=O)Nc2cccc(Oc3ccccc3)c2)n1            24.6
